Collected EC50 values appear next to each entry.
# Test system: MCF-7 human breast cancer cells
# assay explanation: CELLTITER-GLO luminescent cell viability assay
# Type: cell-based
# experimental parameters: MCF7, 192 h, MCF-7 cells, 8 days, read-out: EC50 (Effect on Cell Viability)

>  <molecule>
CC(=O)c1c(C)c2cnc(Nc3ccc(N4CCN(S(=O)(=O)N5CCCC[C@@H]5CO)CC4)cn3)nc2n(C2CCCC2)c1=O [Compound A7]

>  <EC50>
1 to 10 µM

$$$$
>  <molecule>
CC(=O)c1c(C)c2cnc(Nc3ccc(N4CCN(S(=O)(=O)NC(=O)CN)CC4)cn3)nc2n(C2CCCC2)c1=O [Compound A29]

>  <EC50>
≤ 1 µM

$$$$

Tell me its EC50 given CC(=O)NS(=O)(=O)N1CCN(c2ccc(Nc3ncc4c(C)c(C(C)=O)c(=O)n(C5CCCC5)c4n3)nc2)CC1 [Compound A34] as the entry.
> 10 µM

Tell me its EC50 given CC(=O)c1c(C)c2cnc(Nc3ccc(N4CCN(S(=O)(=O)NC(=O)OCCNC(=O)[C@@H](N)CO)CC4)cn3)nc2n(C2CCCC2)c1=O [Compound A18] as the entry.
> 10 µM

Tell me its EC50 given CC(=O)c1c(C)c2cnc(Nc3ccc(N4CCN(S(=O)(=O)NC(=O)OCCNC(=O)[C@@H](N)C(C)C)CC4)cn3)nc2n(C2CCCC2)c1=O [Compound A14] as the entry.
> 10 µM

Tell me its EC50 given CC(=O)c1c(C)c2cnc(Nc3ccc(N4CCN(S(=O)(=O)NC(=O)[C@H]5CCCN5)CC4)cn3)nc2n(C2CCCC2)c1=O [Compound A33] as the entry.
≤ 1 µM

Tell me its EC50 given CC(=O)c1c(C)c2cnc(Nc3ccc(N4CCN(S(=O)(=O)NC(=O)C(C)C)CC4)cn3)nc2n(C2CCCC2)c1=O [Compound A36] as the entry.
1 to 10 µM

Tell me its EC50 given CC(=O)c1c(C)c2cnc(Nc3ccc(N4CCN(S(=O)(=O)NC(=O)OC5CCC5)CC4)cn3)nc2n(C2CCCC2)c1=O [Compound A23] as the entry.
1 to 10 µM

---

Collected IC50 values appear next to each entry.
# assay target: CDK4/cyclin D1 (Homo sapiens (Human))
# assay explanation: CDK4 Caliper Mobility Shift assay
# Format: biochemical

Recorded results for 2 molecules are shown here.
>  <molecule>
CC(=O)c1c(C)c2cnc(Nc3ccc(N4CCN(S(=O)(=O)NC(=O)OC5CC5)CC4)cn3)nc2n(C2CCCC2)c1=O

>  <assay target>
CDK4/cyclin D1 (Homo sapiens (Human))

>  <IC50>
≤ 0.2 µM

$$$$
>  <molecule>
CC(=O)c1c(C)c2cnc(Nc3ccc(N4CCN(S(=O)(=O)NC(=O)OCCNC(=O)[C@@H](N)CC(C)C)CC4)cn3)nc2n(C2CCCC2)c1=O

>  <assay target>
CDK4/cyclin D1 (Homo sapiens (Human))

>  <IC50>
≤ 0.2 µM

$$$$

Please look at the following molecule next.
Tell me its IC50 given `CC(=O)c1c(C)c2cnc(Nc3ccc(N4CCN(S(=O)(=O)NCC(=O)O)CC4)cn3)nc2n(C2CCCC2)c1=O` as the entry.
≤ 0.2 µM

---

# assay target: CDK4/cyclin D1 (Homo sapiens (Human), UniProt P11802)
# Sequence (P11802 whole entry): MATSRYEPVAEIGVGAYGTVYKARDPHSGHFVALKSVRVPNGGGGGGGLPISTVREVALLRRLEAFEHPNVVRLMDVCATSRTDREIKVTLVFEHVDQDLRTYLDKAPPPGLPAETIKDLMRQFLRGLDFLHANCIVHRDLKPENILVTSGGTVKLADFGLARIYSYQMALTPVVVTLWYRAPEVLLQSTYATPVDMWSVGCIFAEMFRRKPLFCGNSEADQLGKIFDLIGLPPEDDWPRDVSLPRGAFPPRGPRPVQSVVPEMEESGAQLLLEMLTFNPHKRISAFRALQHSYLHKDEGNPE
# Sequence (P24385 whole entry partner): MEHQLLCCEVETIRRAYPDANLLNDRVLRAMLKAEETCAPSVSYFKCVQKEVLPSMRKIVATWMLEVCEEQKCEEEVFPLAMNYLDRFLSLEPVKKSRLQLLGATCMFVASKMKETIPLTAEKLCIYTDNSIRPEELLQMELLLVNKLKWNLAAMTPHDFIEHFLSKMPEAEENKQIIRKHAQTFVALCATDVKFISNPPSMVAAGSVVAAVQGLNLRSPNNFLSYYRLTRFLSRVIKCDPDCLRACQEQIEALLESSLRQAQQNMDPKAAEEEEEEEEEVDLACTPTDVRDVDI
# assay explanation: CDK4 Caliper Mobility Shift assay
pIC50: −log10 of the molar value.
Collected pIC50 values appear next to each entry.

>  <compound>
CC(=O)NCCOC(=O)NS(=O)(=O)N1CCN(c2ccc(Nc3ncc4c(C)c(C(C)=O)c(=O)n(C5CCCC5)c4n3)nc2)CC1

>  <pIC50>
6.30 to 6.70

$$$$
>  <compound>
CC(=O)c1c(C)c2cnc(Nc3ccc(N4CCN(S(=O)(=O)NC(=O)OCCNC(=O)[C@H]5CCCN5)CC4)cn3)nc2n(C2CCCC2)c1=O

>  <pIC50>
≥ 6.70

$$$$
>  <compound>
CCC(=O)NS(=O)(=O)N1CCN(c2ccc(Nc3ncc4c(C)c(C(C)=O)c(=O)n(C5CCCC5)c4n3)nc2)CC1

>  <pIC50>
≥ 6.70

$$$$

Please look at the following compound next.
Tell me its pIC50 given CC(=O)c1c(C)c2cnc(Nc3ccc(N4CCN(S(=O)(=O)NC(=O)C(N)C(C)C)CC4)cn3)nc2n(C2CCCC2)c1=O (stereo not shown) as the entry.
≥ 6.70
